systemName: rNaV1.4 (Rattus norvegicus)
Sequence (P15390 whole entry): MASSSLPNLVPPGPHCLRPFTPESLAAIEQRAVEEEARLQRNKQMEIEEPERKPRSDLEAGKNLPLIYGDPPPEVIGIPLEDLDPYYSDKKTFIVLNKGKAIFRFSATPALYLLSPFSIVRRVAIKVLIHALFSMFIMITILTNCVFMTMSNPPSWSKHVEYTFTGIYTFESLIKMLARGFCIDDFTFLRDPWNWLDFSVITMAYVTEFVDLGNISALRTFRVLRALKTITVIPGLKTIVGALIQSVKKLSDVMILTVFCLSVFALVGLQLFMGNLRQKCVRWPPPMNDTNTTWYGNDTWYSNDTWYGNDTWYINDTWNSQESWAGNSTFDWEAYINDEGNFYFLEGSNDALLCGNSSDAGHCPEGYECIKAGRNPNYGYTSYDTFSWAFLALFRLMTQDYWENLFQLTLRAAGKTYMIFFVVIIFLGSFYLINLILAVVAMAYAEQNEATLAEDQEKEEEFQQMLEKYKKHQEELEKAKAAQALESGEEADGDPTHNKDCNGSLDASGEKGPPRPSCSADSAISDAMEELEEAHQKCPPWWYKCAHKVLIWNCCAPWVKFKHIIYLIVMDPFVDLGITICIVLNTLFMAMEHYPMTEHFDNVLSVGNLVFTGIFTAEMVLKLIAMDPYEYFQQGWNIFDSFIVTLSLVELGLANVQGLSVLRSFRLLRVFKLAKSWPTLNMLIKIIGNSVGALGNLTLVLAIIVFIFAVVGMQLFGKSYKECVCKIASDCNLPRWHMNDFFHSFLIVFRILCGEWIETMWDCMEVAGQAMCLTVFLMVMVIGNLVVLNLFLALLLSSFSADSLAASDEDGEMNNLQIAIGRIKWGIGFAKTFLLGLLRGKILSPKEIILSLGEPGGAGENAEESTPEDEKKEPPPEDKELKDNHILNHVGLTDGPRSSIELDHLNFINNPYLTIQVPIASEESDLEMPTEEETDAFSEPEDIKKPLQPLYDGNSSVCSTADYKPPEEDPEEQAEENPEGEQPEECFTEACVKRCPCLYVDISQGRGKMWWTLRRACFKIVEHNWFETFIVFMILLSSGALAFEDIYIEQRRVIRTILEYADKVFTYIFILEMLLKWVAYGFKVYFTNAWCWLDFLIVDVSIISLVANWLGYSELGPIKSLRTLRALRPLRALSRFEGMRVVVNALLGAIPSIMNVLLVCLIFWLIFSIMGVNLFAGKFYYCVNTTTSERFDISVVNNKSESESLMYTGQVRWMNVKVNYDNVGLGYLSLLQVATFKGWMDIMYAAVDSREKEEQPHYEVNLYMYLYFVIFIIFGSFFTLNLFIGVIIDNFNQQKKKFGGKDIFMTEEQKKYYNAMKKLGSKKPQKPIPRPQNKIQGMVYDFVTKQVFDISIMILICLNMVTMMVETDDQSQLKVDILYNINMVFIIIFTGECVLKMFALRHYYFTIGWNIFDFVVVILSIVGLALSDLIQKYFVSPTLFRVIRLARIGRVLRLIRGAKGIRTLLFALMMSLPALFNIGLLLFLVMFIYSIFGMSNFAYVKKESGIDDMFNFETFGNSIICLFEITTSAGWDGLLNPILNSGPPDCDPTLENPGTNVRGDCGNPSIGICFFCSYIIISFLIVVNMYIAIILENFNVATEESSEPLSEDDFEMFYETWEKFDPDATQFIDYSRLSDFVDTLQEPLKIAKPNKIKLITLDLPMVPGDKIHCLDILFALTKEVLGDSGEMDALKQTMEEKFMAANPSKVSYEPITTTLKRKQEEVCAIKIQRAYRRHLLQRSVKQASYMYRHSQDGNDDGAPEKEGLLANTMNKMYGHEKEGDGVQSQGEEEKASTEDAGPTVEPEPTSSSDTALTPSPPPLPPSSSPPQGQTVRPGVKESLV
Sequence (Q00954 19-218, further chain): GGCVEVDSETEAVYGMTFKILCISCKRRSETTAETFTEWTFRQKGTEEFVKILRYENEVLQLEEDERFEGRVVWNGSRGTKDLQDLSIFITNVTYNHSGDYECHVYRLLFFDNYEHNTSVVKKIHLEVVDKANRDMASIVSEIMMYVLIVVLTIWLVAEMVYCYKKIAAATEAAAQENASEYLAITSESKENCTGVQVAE
experiment: Two-electrode voltage-clamp on Xenopus laevis oocytes expressing NaV1.4
assayContext: read-out: Maximum % inhibition NaV1.4, peptide at 100 μM
Where a SMILES comes first, the peptide text is derived from it. Bridges are numbered along the chain shown (N, C = ends).
quantity: inhibition at 100 µM
# output: number + unit

[
  {
    "molecule": "N=C(N)NCCC[C@@H]1NC(=O)[C@H](CC(N)=O)NC(=O)[C@H](Cc2c[nH]c3ccccc23)NC(=O)[C@H](CCCNC(=N)N)NC(=O)[C@H](CCCCN)NC(=O)[C@H](Cc2c[nH]c3ccccc23)NC(=O)[C@H](CCCNC(=N)N)NC(=O)[C@H](CCCNC(=N)N)NC(=O)[C@@H](N)CSSC[C@@H](C(N)=O)NC1=O [PnCS1[A5K], CRRWKRWNRC ^*] (H-CRRWKRWNRC-NH2; disulfide 1-10)",
    "inhibition at 100 µM": "91%"
  }
]

Proceed to the following item.
[ask] Look at this molecule and give its reported inhibition at 100 µM. C[C@@H]1NC(=O)[C@H](Cc2c[nH]c3ccccc23)NC(=O)[C@H](CCCNC(=N)N)NC(=O)[C@H](CCC(=O)O)NC(=O)[C@@H](N)CSSC[C@@H](C(N)=O)NC(=O)[C@H](CCCNC(=N)N)NC(=O)[C@H](CC(N)=O)NC(=O)[C@H](Cc2c[nH]c3ccccc23)NC(=O)[C@H](CCCNC(=N)N)NC1=O [PnCS1[R2E], CERWARWNRC ^*] (H-CERWARWNRC-NH2; disulfide 1-10)
[reply] 11%

Reference source: paper PMC9116130
